Tested on: clinical strains of C. quillermondiae
Test: MIC, clinical yeast strains, C. quillermondiae
Assay type: cell-based
Settings: C. quillermondiae clinical yeast strain 1
Where a SMILES comes first, the peptide text is derived from it. [ ]: non-standard residue; d: D form.

>  <compound>
CC(C)C[C@@H](NC(=O)[C@@H](CCCCN)NC(=O)[C@@H](CCCCN)NC(=O)[C@@H](Cc1ccccc1)NC(=O)[C@@H](CC(C)C)NC(=O)[C@@H](Cc1c[nH]c2ccccc12)NC(=O)[C@@H](CCCNC(=N)N)NC(=O)[C@@H](Cc1c[nH]c2ccccc12)NC(=O)[C@@H](CCCCN)NC(=O)[C@@H](CCCNC(=N)N)NC(=O)[C@H](N)CCCCN)C(=O)O [Chain310D] (H-[dK][dR][dK][dW][dR][dW][dL][dF][dK][dK][dL]-OH)

>  <test-target>
clinical strains of C. quillermondiae

>  <Minimum inhibitory concentration>
8

$$$$
>  <compound>
CC[C@@H](C)[C@@H](N)C(=O)N[C@H](Cc1c[nH]c2ccccc12)C(=O)N[C@H](CCCCN)C(=O)N[C@H](CCCNC(=N)N)C(=O)N[C@H](Cc1ccccc1)C(=O)N[C@H](CCCNC(=N)N)C(=O)N[C@H](CC(C)C)C(=O)N[C@H](Cc1ccccc1)C(=O)N[C@H](CCCCN)C(=O)N[C@H](CCCCN)C(=O)N[C@H](Cc1c[nH]c2ccccc12)C(=O)O [Chain304D] (H-[dI][dW][dK][dR][dF][dR][dL][dF][dK][dK][dW]-OH)

>  <test-target>
clinical strains of C. quillermondiae

>  <Minimum inhibitory concentration>
16

$$$$
>  <compound>
C[C@@H]1[C@H](O)[C@@H](C)/C=C/C=C/C=C/C=C/C=C/C=C/C=C/[C@H](O[C@@H]2O[C@H](C)[C@@H](O)[C@H](N)[C@@H]2O)C[C@@H]2O[C@](O)(C[C@@H](O)C[C@@H](O)[C@H](O)CC[C@@H](O)C[C@@H](O)CC(=O)O[C@H]1C)C[C@H](O)[C@H]2C(=O)O [Amphotericin B, reference compound]

>  <test-target>
clinical strains of C. quillermondiae

>  <Minimum inhibitory concentration>
2

$$$$

----------
# Minimum inhibitory concentration per entry
Tested on: clinical strains of Escherichia coli
Assay: MIC, clinical strains of E. coli
Type: cell-based
Design: unit: μg/ml
Details: Escherichia coli clinical strain 2; microdilution, Muller Hinton broth-cation adjusted, 0.02% BSA, 0.2% acetic acid
Where a SMILES comes first, the peptide text is derived from it. [ ]: non-standard residue; d: D form.

>  <compound>
CC[C@@H](C)[C@@H](NC(=O)[C@@H](Cc1c[nH]c2ccccc12)NC(=O)[C@H](N)CCCCN)C(=O)N[C@@H](C(=O)N[C@H](Cc1c[nH]c2ccccc12)C(=O)N[C@H](CCCNC(=N)N)C(=O)N[C@H](Cc1c[nH]c2ccccc12)C(=O)N[C@H](CCCNC(=N)N)C(=O)N[C@H](Cc1ccccc1)C(=O)N[C@H](CCCCN)C(=O)N[C@H](CCCNC(=N)N)C(=O)O)C(C)C [Chain201D] (H-[dK][dW][dI][dV][dW][dR][dW][dR][dF][dK][dR]-OH)

>  <Minimum inhibitory concentration>
1

$$$$
>  <compound>
CC(C)C[C@@H](NC(=O)[C@H](N)CCCNC(=N)N)C(=O)N[C@H](CCCCN)C(=O)N[C@H](CCCNC(=N)N)C(=O)N[C@H](Cc1c[nH]c2ccccc12)C(=O)N[C@H](CCCNC(=N)N)C(=O)N[C@H](CC(C)C)C(=O)N[C@H](Cc1ccccc1)C(=O)N[C@H](CCCNC(=N)N)C(=O)N[C@H](CCCCN)C(=O)N[C@H](CCCNC(=N)N)C(=O)O [Chain306D] (H-[dR][dL][dK][dR][dW][dR][dL][dF][dR][dK][dR]-OH)

>  <Minimum inhibitory concentration>
2

$$$$
>  <compound>
CC[C@@H](C)[C@@H](N)C(=O)N[C@H](Cc1c[nH]c2ccccc12)C(=O)N[C@H](CCCCN)C(=O)N[C@H](CCCNC(=N)N)C(=O)N[C@H](Cc1ccccc1)C(=O)N[C@H](CCCNC(=N)N)C(=O)N[C@H](CC(C)C)C(=O)N[C@H](Cc1ccccc1)C(=O)N[C@H](CCCCN)C(=O)N[C@H](CCCCN)C(=O)N[C@H](Cc1c[nH]c2ccccc12)C(=O)O [Chain304D] (H-[dI][dW][dK][dR][dF][dR][dL][dF][dK][dK][dW]-OH)

>  <Minimum inhibitory concentration>
16

$$$$
>  <compound>
CC(C)C[C@@H](NC(=O)[C@H](N)CCCNC(=N)N)C(=O)N[C@H](CCCCN)C(=O)N[C@H](Cc1c[nH]c2ccccc12)C(=O)N[C@H](Cc1ccccc1)C(=O)N[C@H](CC(C)C)C(=O)N[C@H](CC(C)C)C(=O)N[C@H](Cc1ccccc1)C(=O)N[C@H](CCCNC(=N)N)C(=O)N[C@H](CCCCN)C(=O)N[C@H](CCCNC(=N)N)C(=O)O [Chain308D] (H-[dR][dL][dK][dW][dF][dL][dL][dF][dR][dK][dR]-OH)

>  <Minimum inhibitory concentration>
0.5

$$$$
>  <compound>
CC(C)C[C@@H](NC(=O)[C@H](N)CCCCN)C(=O)N[C@H](CCCCN)C(=O)N[C@H](Cc1c[nH]c2ccccc12)C(=O)N[C@H](Cc1ccccc1)C(=O)N[C@H](Cc1c[nH]c2ccccc12)C(=O)N[C@H](CC(C)C)C(=O)N[C@H](Cc1ccccc1)C(=O)N[C@H](CCCCN)C(=O)N[C@H](CCCCN)C(=O)N[C@H](CCCNC(=N)N)C(=O)O [Chain311D] (H-[dK][dL][dK][dW][dF][dW][dL][dF][dK][dK][dR]-OH)

>  <Minimum inhibitory concentration>
2

$$$$

----------
System: clinical strains of Proteus mirabilis
Assay: MIC, clinical strains of Proteus mirabilis
Format: cell-based
Design: unit: µg/mL
Conditions: Proteus mirabilis clinical strain 3; microdilution, Muller Hinton broth-cation adjusted, 0.02% BSA, 0.2% acetic acid
Where a SMILES comes first, the peptide text is derived from it. [ ]: non-standard residue; d: D form.

>  <compound>
CC[C@@H](C)[C@@H](NC(=O)[C@@H](CC(C)C)NC(=O)[C@@H](CCCNC(=N)N)NC(=O)[C@H](N)CCCNC(=N)N)C(=O)N[C@H](Cc1c[nH]c2ccccc12)C(=O)N[C@H](CCCNC(=N)N)C(=O)N[C@H](CCCNC(=N)N)C(=O)N[C@H](Cc1ccccc1)C(=O)N[C@H](CCCCN)C(=O)N[C@H](Cc1c[nH]c2ccccc12)C(=O)N[C@H](CC(C)C)C(=O)N[C@H](CCCNC(=N)N)C(=O)O [Chain204D] (H-[dR][dR][dL][dI][dW][dR][dR][dF][dK][dW][dL][dR]-OH)

>  <Minimum inhibitory concentration>
64

$$$$

----------
Test system: clinical strains of Candida albicans
Assay: MIC, clinical yeast strains, Candida albicans
Format: cell-based
Design: unit: μg/ml
Details: Candida albicans clinical yeast strain 2
Where a SMILES comes first, the peptide text is derived from it. [ ]: non-standard residue; d: D form.
# Minimum inhibitory concentration per entry
assay-readout: Minimum inhibitory concentration

>  <compound>
CC[C@@H](C)[C@@H](N)C(=O)N[C@H](Cc1c[nH]c2ccccc12)C(=O)N[C@H](CCCCN)C(=O)N[C@H](CCCNC(=N)N)C(=O)N[C@H](Cc1ccccc1)C(=O)N[C@H](CCCNC(=N)N)C(=O)N[C@H](CC(C)C)C(=O)N[C@H](Cc1ccccc1)C(=O)N[C@H](CCCCN)C(=O)N[C@H](CCCCN)C(=O)N[C@H](Cc1c[nH]c2ccccc12)C(=O)O [Chain304D] (H-[dI][dW][dK][dR][dF][dR][dL][dF][dK][dK][dW]-OH)

>  <value-reported>
16

$$$$
>  <compound>
CC(C)C[C@@H](NC(=O)[C@@H](Cc1c[nH]c2ccccc12)NC(=O)[C@@H](Cc1ccccc1)NC(=O)[C@@H](Cc1c[nH]c2ccccc12)NC(=O)[C@@H](CCCCN)NC(=O)[C@@H](CCCNC(=N)N)NC(=O)[C@H](N)Cc1c[nH]c2ccccc12)C(=O)N[C@H](Cc1ccccc1)C(=O)N[C@H](CCCCN)C(=O)N[C@H](CCCCN)C(=O)N[C@H](CCCNC(=N)N)C(=O)O [Chain309D] (H-[dW][dR][dK][dW][dF][dW][dL][dF][dK][dK][dR]-OH)

>  <value-reported>
32

$$$$
>  <compound>
CC[C@@H](C)[C@@H](NC(=O)[C@@H](CC(C)C)NC(=O)[C@@H](CCCNC(=N)N)NC(=O)[C@H](N)CCCNC(=N)N)C(=O)N[C@H](Cc1c[nH]c2ccccc12)C(=O)N[C@H](CCCNC(=N)N)C(=O)N[C@H](CCCNC(=N)N)C(=O)N[C@H](Cc1ccccc1)C(=O)N[C@H](CCCCN)C(=O)N[C@H](Cc1c[nH]c2ccccc12)C(=O)N[C@H](CC(C)C)C(=O)N[C@H](CCCNC(=N)N)C(=O)O [Chain204D] (H-[dR][dR][dL][dI][dW][dR][dR][dF][dK][dW][dL][dR]-OH)

>  <value-reported>
8

$$$$
